# System: HEK293 WT BDD-FVIII-Gluc
# measurement.protocol: secreted FVIII-Gluc luciferase Z-score vs DMSO control; higher = more FVIII-Gluc secretion
# experimental.setup: 5 µM
// reported secreted FVIII-Gluc luciferase Z-score per item

1) O=C(/C=C/c1ccc(O)cc1)c1c(O)cc(O)cc1O ... 0.157

What measured secreted FVIII-Gluc luciferase Z-score goes with O=c1cc(-c2ccccc2O)oc2c(O)c(O)ccc12 ?
0.356

----------
# System: HEK293 WT BDD-FVIII-Gluc
# measurement.protocol: secreted FVIII-Gluc luciferase Z-score vs DMSO control; higher = more FVIII-Gluc secretion
# experimental.setup: 5 µM
Rule: secreted FVIII-Gluc luciferase Z-score under 0.2 gives 0, otherwise 1.

1) COc1cn(C2OC(CO)C(O)C2O)c(=O)[nH]c1=O (stereo not given) ... 0
2) CC(=O)[C@H]1CC[C@H]2[C@@H]3CCC4=CC(=O)CC[C@]4(C)[C@H]3CC[C@]12C ... 0
3) COc1cc2cc(Oc3ccc4ccc(=O)oc4c3)c(=O)oc2cc1O ... 1
4) Nc1nc2c(ncn2[C@@H]2O[C@H](COP(=O)(O)O)[C@@H](O)[C@H]2O)c(=O)[nH]1 ... 0
5) COc1ccc(CCN(C)CCCC(C#N)(c2ccc(OC)c(OC)c2)C(C)C)cc1OC (stereo not given) ... 0
6) O=C(O)C1[C@H]2C[C@H]3c4[nH]c5ccccc5c4CCN3C[C@@H]2CC[C@@H]1O (stereo not given in full) ... 1
7) COc1cc2c(cc1OC)C(=O)N(C)CC2 ... 1
8) CC(C)CCCC(C)C1CCC2C3CC=C4CC(O)CCC4(C)C3CCC12C (stereo not given) ... 1

Dear colleague, could you confirm whether COC(=O)C[C@](O)(CCCC(C)(C)O)C(=O)O[C@@H]1C(OC)=C[C@]23CCCN2CCc2cc4c(cc2[C@H]13)OCO4 has secreted FVIII-Gluc luciferase Z-score at or above 0.2?
0

Dear colleague, could you confirm whether O=C1c2c(O)cc(O)cc2OC(c2ccc(O)c(O)c2)C1O (stereo not given) has secreted FVIII-Gluc luciferase Z-score at or above 0.2?
0

Hello, the source for this data is the supplement of paper PMC12024529, in case you need it.
